# credit: ChEMBL document CHEMBL3864163

Biological target: Muscarinic acetylcholine receptor M2 (Homo sapiens) (UniProt P08172)
Sequence (P08172 whole entry): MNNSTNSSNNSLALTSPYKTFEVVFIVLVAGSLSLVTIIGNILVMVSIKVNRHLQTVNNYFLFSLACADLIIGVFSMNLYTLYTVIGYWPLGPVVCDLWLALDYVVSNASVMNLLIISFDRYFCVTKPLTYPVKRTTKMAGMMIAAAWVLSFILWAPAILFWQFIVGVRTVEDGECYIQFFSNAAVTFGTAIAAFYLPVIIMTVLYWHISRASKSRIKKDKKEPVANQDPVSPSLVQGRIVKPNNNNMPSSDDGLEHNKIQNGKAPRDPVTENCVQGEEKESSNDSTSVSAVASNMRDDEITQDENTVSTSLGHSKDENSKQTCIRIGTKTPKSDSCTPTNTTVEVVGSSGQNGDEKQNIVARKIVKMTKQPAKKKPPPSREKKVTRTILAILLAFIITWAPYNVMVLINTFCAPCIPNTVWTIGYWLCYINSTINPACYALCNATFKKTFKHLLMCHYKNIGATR
Test: Displacement of [3H]AF-DX384 from recombinant human muscarinic M2 receptor expressed in CHO cells at 10 uM after 60 mins by scintillation counting method relative to control
Type: cell-based
QUANTITY_MEASURED: inhibition (%)
Dear colleague, please return just the value in %, with no unit written.

For COc1cc(CN(C[C@H]2CC[C@H](C(=O)O)CC2)[C@H]2CCc3c2ccc(Cl)c3F)ccc1OCCN1C(=O)CCC1=O , what is its reported inhibition?
16

I have this compound here, COc1cc(CN(C[C@H]2CC[C@H](C(=O)O)CC2)C2CCc3cc(Cl)ccc32)ccc1OCCN1C(=O)CCC1=O (some centres undefined) , and I need its recorded inhibition.
0

Form field: reported inhibition of Cc1cc(CN(C[C@H]2CC[C@H](C(=O)O)CC2)C(C)c2ccc3c(c2)CCO3)ccc1OCCN1C(=O)CCC1=O (some centres undefined)
99

###

Experiment: Absolute oral bioavailability in Balb/c mouse at 10 mg/kg
Format: ADME, organism-based
Conditions: in vivo
QUANTITY_MEASURED: bioavailability (%)
Please respond with the number in % and leave the unit unwritten.

What value of measured bioavailability is listed for Cc1cc(CN(C[C@H]2CC[C@H](C(=O)O)CC2)C(C)c2ccc3c(c2)CCO3)ccc1OCCN1C(=O)CCC1=O (some centres not stated) ?
4.1

Entry COc1cc(CN(Cc2ccc(C(=O)O)cc2)C(C)c2ccc3c(c2)CCO3)ccc1OCCN1C(=O)CCC1=O (configuration not stated) : reported bioavailability = ?
9

For the compound Cc1cc(CN(C[C@H]2CC[C@H](C(=O)O)CC2)[C@H]2CCc3cc(Cl)ccc32)ccc1OCCN1C(=O)CCC1=O , what bioavailability is on record?
69

Entry under review: Cc1cc(CN(C[C@H]2CC[C@H](C(=O)O)CC2)[C@@H](C)c2ccc(Cl)cc2)ccc1OCCN1C(=O)CN(C)C1=O . Reported bioavailability?
63.3

Fill in the blank: the reported bioavailability of COc1cc(CN(C[C@H]2CC[C@H](C(=O)O)CC2)[C@@H](C)c2ccc(Cl)cc2)ccc1OCCN1C(=O)CCC1=O is ____.
13.3

What value of bioavailability has been reported for the following compound? COc1cc(CN(C[C@H]2CC[C@H](C(=O)O)CC2)[C@H]2CCc3cc(Cl)ccc32)ccc1OCCN1C(=O)CCC1=O
24

Quick one: bioavailability of Cc1cc(CN(C[C@H]2CC[C@H](C(=O)O)CC2)[C@@H](C)c2ccc(Cl)cc2)ccc1OCCN1C(=O)CCC1=O ?
93.5

###

Target: C-X-C chemokine receptor type 3 (Homo sapiens, UniProt P49682)
Sequence (P49682 whole entry): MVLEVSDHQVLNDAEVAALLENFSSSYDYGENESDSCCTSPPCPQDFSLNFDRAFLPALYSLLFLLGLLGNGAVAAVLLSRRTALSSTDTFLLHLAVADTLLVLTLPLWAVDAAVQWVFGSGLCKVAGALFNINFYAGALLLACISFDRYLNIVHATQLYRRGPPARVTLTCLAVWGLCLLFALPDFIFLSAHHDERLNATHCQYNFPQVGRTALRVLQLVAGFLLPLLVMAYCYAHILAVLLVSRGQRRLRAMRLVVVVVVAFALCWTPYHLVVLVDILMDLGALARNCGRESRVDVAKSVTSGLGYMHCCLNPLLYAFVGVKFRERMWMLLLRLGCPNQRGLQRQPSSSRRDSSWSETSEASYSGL
Experiment: Antagonist activity at human Galphai4qi4-coupled CXCR3A expressed in engineered CHO cells assessed as inhibition of IP-10-induced calcium mobilization by FLIPR assay
Assay type: functional, cell-based
QUANTITY_MEASURED: pIC50
pIC50 here is simply -log10 of the concentration when that concentration is written in mol/L.

Consider the compound shown here: COc1cc(CN(C)C(C)c2ccc3c(c2)CCO3)ccc1OCCN1C(=O)CCC1=O (stereo unspecified) What is its recorded pIC50?
7.13

###

Test: Intrinsic clearance in human hepatocytes assessed per 10^6 cells at 5 uM
Type: ADME, cell-based, Hepatocyte
QUANTITY_MEASURED: CLH (mL/h)
Reply with just the number (in mL/h).

Suppose we examine the compound Cc1cc(CN(C[C@H]2CC[C@H](C(=O)O)CC2)[C@@H](C)c2ccc(Cl)cc2)ccc1OCCN1C(=O)CCC1=O ; what CLH value has been reported?
0.138

# CLH lookup, item COc1cc(CN(C[C@H]2CC[C@H](C(=O)O)CC2)[C@H]2CCc3c2ccc(Cl)c3F)ccc1OCCN1C(=O)CCC1=O
0.031

Param item = CCc1cc(CN(C[C@H]2CC[C@H](C(=O)O)CC2)[C@H]2CCc3cc(Cl)ccc32)ccc1OCCN1C(=O)CCC1=O ; retrieve measured CLH.
0.069

// CLH lookup, key: COc1cc(CN(C[C@H]2CC[C@H](C(=O)O)CC2)[C@H]2CCc3c2ccc(Cl)c3Cl)ccc1OCCN1C(=O)CCC1=O
0.083
